Molecular target: T1, hIL-6R recombinant protein (plate-coated, Example 5) (human, UniProt P08887 20-358, limits assumed)
T1 construct: also called antigen
T1 sequence: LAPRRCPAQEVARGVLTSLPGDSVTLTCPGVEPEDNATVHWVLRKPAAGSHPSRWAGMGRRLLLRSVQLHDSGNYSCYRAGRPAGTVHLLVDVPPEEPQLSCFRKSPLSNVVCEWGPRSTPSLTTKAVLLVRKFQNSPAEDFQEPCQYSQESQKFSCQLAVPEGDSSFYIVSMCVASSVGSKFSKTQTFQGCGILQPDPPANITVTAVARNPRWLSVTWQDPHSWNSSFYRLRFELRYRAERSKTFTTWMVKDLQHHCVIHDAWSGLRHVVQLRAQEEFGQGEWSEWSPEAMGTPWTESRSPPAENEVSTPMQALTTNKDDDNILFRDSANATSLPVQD
Test: competition ELISA on hIL-6R-coated plate presaturated with competitor control antibody; test antibody 50 ng/ml
Readout Kind: % reduction of binding by control antibody (%)
Answers are plain numbers, in %.

// query % reduction of binding by control antibody value for entry VV3D8-4 (antibody, V domains shown, Human variable regions with mouse constant region) VH: EVQLVESGGGLVQPGRSLRLSCAASGFTFDDYALHWVRQAPGKGLEWVSGISWNSGRIGYADSVKGRFTISRDNAKNSLFLQMNSLRAEDTALYYCAKGRDAFDIWGQGTLVTVSS VL: DIQMTQSPSSVSASVGDRVTITCRASQGISSWLAWYQQKPGKAPKLLIYAASSLQSGVPSRFSGSGSGTDFTLTISSLQPEDFATYYCQQANSFPYTFGQGTKLEIK
84

src = patent US20070280945A1
